- Species on record: Cavia porcellus
- runDescription: Tested for effect on the production of cyclooxygenase (COX) metabolite, TXB2 of arachidonic acid in guinea pig peritoneal polymorphonuclear neutrophils at 30 uM concentration
- Format: functional
Measured Reduction by item
endpointLabel: Reduction

[[record]]
compound = "CC(C(=O)O)c1cc(C(=O)c2cccs2)ccc1O (configuration not stated)"
result = "89%"

[[record]]
compound = "CCC(C(=O)O)c1cc(C(=O)c2cccs2)ccc1O (configuration not stated)"
result = "92%"

[[record]]
compound = "O=C1Oc2ccc(C(=O)c3cccs3)cc2/C1=C/c1ccccc1"
result = "92%"

[[record]]
compound = "NC1=NN(c2cccc(C(F)(F)F)c2)CC1 [BW-755C]"
result = "90%"

[[record]]
compound = "O=C(O)Cc1cc(C(=O)c2cccs2)ccc1O"
result = "89%"

[[record]]
compound = "CCC1(CC)C(=O)Oc2ccc(C(=O)c3cccs3)cc21"
result = "90%"

[[record]]
compound = "CC1C(=O)Oc2ccc(C(=O)c3ccco3)cc21 (configuration not stated)"
result = "81%"

[[record]]
compound = "O=C1Oc2ccc(C(=O)c3cccs3)cc2/C1=C/c1ccc(C(F)(F)F)cc1"
result = "95%"

[[record]]
compound = "O=C1Cc2cc(C(=O)c3cccs3)ccc2O1"
result = "65%"

[[record]]
compound = "O=C1Oc2ccc(C(=O)c3cccs3)cc2/C1=C/c1ccc(Cl)cc1"
result = "93%"

[[record]]
compound = "Cc1ccc(C(=O)c2ccc3c(c2)C(C)C(=O)O3)s1 (configuration not stated)"
result = "86%"

[[record]]
compound = "CC1C(=O)Oc2ccc(C(=O)c3cccs3)cc21 (configuration not stated)"
result = "67%"


---

- Species: Cavia porcellus
- runDescription: Tested for effect on the production of cyclooxygenase (COX) metabolite, TXB2 of arachidonic acid in guinea pig peritoneal polymorphonuclear neutrophils at 30 uM concentration
- Type: functional
endpointLabel: Reduction (%)

[[record]]
molecule = "CC(C)(C(=O)O)c1cc(C(=O)c2cccs2)ccc1O"
readoutunits = "%"
numericresult = 90

[[record]]
molecule = "CC(C(=O)O)c1cc(C(=O)c2ccc(F)cc2)ccc1O (stereo not given)"
readoutunits = "%"
numericresult = 74

[[record]]
molecule = "COc1ccc2c(c1)c(CC(=O)O)c(C)n2C(=O)c1ccc(Cl)cc1"
readoutunits = "%"
numericresult = 91

[[record]]
molecule = "C=CCc1cc(C(=O)c2cccs2)cc2c1OC(=O)C2C (stereo not given)"
readoutunits = "%"
numericresult = 93

[[record]]
molecule = "CCC1C(=O)Oc2ccc(C(=O)c3cccs3)cc21 (stereo not given)"
readoutunits = "%"
numericresult = 90

[[record]]
molecule = "CC(C(=O)O)c1cc(C(=O)c2ccccc2)ccc1O (stereo not given)"
readoutunits = "%"
numericresult = 75

[[record]]
molecule = "C=CCOc1ccc(C(=O)c2cccs2)cc1C(C)C(=O)O (stereo not given)"
readoutunits = "%"
numericresult = 62

[[record]]
molecule = "CCCCC1C(=O)Oc2ccc(C(=O)c3cccs3)cc21 (stereo not given)"
readoutunits = "%"
numericresult = 89

[[record]]
molecule = "CC1C(=O)Oc2ccc(C(=O)c3ccccc3)cc21 (stereo not given)"
readoutunits = "%"
numericresult = 82

[[record]]
molecule = "CC1(C)C(=O)Oc2ccc(C(=O)c3cccs3)cc21"
readoutunits = "%"
numericresult = 81

[[record]]
molecule = "COc1ccc(C(=O)c2ccc(O)c(C(C)C(=O)O)c2)cc1 (stereo not given)"
readoutunits = "%"
numericresult = 89

[[record]]
molecule = "CC(C)(C)c1cc(/C=C2\\C(=O)Oc3ccc(C(=O)c4cccs4)cc32)cc(C(C)(C)C)c1O"
readoutunits = "%"
numericresult = 26

[[record]]
molecule = "COc1ccc(C(=O)c2ccc3c(c2)C(C)C(=O)O3)cc1 (stereo not given)"
readoutunits = "%"
numericresult = 70

[[record]]
molecule = "CCCC1C(=O)Oc2ccc(C(=O)c3cccs3)cc21 (stereo not given)"
readoutunits = "%"
numericresult = 81

[[record]]
molecule = "CCC(CC)(C(=O)O)c1cc(C(=O)c2cccs2)ccc1O"
readoutunits = "%"
numericresult = 90

